Recorded measurements of Dmax, one per entry
system: SMARCA4 (Homo sapiens)
Construct: SMARCA4-HiBiT knock-in Hela monoclonal cell (CS3023226) were purchased from Promega; host or cells: HeLa (CRISPR HiBiT knock-in monoclonal line, heterozygous)
Sequence (P51532 whole entry): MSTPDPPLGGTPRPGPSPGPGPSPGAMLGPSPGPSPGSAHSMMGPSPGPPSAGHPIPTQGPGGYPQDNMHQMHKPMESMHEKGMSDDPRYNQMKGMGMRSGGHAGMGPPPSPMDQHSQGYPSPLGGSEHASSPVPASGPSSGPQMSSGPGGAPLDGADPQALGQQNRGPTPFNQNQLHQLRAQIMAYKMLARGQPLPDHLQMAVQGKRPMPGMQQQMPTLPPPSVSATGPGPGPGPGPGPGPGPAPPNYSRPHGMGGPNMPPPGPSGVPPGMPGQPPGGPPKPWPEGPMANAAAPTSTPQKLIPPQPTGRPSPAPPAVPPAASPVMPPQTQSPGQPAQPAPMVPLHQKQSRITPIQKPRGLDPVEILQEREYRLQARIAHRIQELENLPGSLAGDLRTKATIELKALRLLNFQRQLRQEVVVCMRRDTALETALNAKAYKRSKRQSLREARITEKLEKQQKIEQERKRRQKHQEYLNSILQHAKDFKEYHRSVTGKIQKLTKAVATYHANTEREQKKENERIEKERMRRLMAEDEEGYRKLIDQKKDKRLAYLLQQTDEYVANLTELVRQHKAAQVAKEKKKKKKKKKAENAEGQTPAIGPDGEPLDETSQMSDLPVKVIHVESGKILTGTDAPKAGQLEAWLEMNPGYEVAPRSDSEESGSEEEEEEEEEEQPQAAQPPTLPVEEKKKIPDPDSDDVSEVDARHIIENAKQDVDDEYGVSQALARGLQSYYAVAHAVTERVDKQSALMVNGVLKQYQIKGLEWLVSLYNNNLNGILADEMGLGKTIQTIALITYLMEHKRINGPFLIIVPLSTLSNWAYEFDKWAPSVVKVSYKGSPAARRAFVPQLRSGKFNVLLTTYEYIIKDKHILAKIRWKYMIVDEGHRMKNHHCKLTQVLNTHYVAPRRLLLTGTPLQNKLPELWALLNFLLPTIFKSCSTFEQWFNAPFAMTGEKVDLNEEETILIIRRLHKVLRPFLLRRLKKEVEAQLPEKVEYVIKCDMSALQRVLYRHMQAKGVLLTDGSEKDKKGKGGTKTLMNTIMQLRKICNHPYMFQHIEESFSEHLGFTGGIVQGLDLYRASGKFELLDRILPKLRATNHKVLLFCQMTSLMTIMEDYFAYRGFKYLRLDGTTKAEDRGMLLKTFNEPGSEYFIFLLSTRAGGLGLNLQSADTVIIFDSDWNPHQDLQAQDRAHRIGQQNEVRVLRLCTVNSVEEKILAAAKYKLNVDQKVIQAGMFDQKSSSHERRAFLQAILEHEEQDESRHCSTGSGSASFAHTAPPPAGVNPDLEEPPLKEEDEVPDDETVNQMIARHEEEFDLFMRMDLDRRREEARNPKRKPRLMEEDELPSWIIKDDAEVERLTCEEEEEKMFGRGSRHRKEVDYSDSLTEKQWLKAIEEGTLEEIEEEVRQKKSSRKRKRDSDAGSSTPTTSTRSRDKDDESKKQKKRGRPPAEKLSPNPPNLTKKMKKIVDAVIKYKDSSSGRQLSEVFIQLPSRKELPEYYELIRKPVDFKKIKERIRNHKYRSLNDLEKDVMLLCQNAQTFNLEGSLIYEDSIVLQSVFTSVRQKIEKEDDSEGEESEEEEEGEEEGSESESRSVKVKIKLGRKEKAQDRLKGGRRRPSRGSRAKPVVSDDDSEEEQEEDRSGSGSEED
experimentSummary: SMARCA4 HiBiT degradation assay in HeLa cells
Format: cell-based
protocolConditions: HeLa, 18 hours

Previously resolved entries follow.
compound: CC12CNc3nnc(-c4cccc(F)c4O)cc3N1CCN(C[C@H]1CC[C@H](CN3CCN(c4ccc5c(c4)C(=O)N([C@H]4CCC(=O)NC4=O)C5)CC3)CC1)C2 (single isomer, unassigned) [Example 117]
system: SMARCA4 (Homo sapiens)
Dmax: 50 to 75%
//
compound: C[C@@H]1CN(CC2CCN(c3ccc4c(c3)C(=O)N(C3CCC(=O)NC3=O)C4)CC2)[C@@H](C)CN1C(=O)N1CCN2c3cc(-c4cccc(F)c4O)nnc3NCC2(C)C1 (single isomer, unassigned) [Example 91]
system: SMARCA4 (Homo sapiens)
Dmax: < 50%

Now consider a different compound.
Noted for C[C@@H]1CN(CC2CCN(c3ccc4c(c3)C(=O)N(C3CCC(=O)NC3=O)C4)CC2)C[C@H](C)N1C(=O)N1CCN2c3cc(-c4cc(F)cc(F)c4O)nnc3NCC2(C)C1 (stereo partly drawn) [Example 26] : its Dmax reads > 75%

----------
Measured Dmax, listed per entry.
system: SMARCA4 (Homo sapiens)
Construct: SMARCA4-HiBiT knock-in Hela monoclonal cell (CS3023226) were purchased from Promega; host or cells: HeLa (CRISPR HiBiT knock-in monoclonal line, heterozygous)
experimentSummary: SMARCA4 HiBiT degradation assay in HeLa cells
Assay type: cell-based
protocolConditions: HeLa, 18 hours

molecule: CCC12CNc3nnc(-c4cccc(Cl)c4O)cc3N1CCN(C(=O)N1[C@H](C)CN(CC3CCN(c4ccc5c(c4)C(=O)N([C@H]4CCC(=O)NC4=O)C5)CC3)C[C@H]1C)C2 (single isomer, unassigned) [Example 75]
Dmax: 50 to 75%
//
molecule: C[C@H]1CN2c3cc(-c4cc(F)cc(F)c4O)nnc3NC[C@H]2CN1C[C@H]1[C@@H]2CN(C[C@H]3CCN(c4ccc5c(c4)C(=O)N(C4CCC(=O)NC4=O)C5)C[C@@H]3F)C[C@@H]21 (single isomer, unassigned) [Example 39]
Dmax: < 50%
//
molecule: C[C@@H]1CN(CC2CCN(c3ccc4c(c3)C(=O)N(C3CCC(=O)NC3=O)C4)CC2)C[C@@H](C)N1C(=O)N1CCN2c3cc(-c4cc(F)cc(F)c4O)nnc3NCC2(C)C1 (some centres unmarked) [Example 33]
Dmax: > 75%
//
molecule: O=C1CCC(N2Cc3ccc(N4CCOC(CN5CC6C(C5)C6CN5CCN6c7cc(-c8cc(F)cc(F)c8O)nnc7NCC6C5)C4)cc3C2=O)C(=O)N1 (centres unmarked) [Example 49]
Dmax: > 75%

Let's switch to this molecule now.
Tested system SMARCA4 (Homo sapiens); Dmax recorded for O=C1CCC(N2Cc3ccc(N4CCN(C[C@H]5CC[C@H](C(=O)N6CCN7c8cc(-c9cccc(F)c9O)nnc8NC[C@H]7C6)CC5)CC4)cc3C2=O)C(=O)N1 (some centres unmarked) [Example 104] was < 50%

----------
system: SMARCA2 (Homo sapiens, UniProt P51531)
Construct: SMARCA2-HiBiT knock-in Hela monoclonal cell (CS302366); host or cells: HeLa (CRISPR HiBiT knock-in monoclonal line, heterozygous)
Sequence (P51531 whole entry): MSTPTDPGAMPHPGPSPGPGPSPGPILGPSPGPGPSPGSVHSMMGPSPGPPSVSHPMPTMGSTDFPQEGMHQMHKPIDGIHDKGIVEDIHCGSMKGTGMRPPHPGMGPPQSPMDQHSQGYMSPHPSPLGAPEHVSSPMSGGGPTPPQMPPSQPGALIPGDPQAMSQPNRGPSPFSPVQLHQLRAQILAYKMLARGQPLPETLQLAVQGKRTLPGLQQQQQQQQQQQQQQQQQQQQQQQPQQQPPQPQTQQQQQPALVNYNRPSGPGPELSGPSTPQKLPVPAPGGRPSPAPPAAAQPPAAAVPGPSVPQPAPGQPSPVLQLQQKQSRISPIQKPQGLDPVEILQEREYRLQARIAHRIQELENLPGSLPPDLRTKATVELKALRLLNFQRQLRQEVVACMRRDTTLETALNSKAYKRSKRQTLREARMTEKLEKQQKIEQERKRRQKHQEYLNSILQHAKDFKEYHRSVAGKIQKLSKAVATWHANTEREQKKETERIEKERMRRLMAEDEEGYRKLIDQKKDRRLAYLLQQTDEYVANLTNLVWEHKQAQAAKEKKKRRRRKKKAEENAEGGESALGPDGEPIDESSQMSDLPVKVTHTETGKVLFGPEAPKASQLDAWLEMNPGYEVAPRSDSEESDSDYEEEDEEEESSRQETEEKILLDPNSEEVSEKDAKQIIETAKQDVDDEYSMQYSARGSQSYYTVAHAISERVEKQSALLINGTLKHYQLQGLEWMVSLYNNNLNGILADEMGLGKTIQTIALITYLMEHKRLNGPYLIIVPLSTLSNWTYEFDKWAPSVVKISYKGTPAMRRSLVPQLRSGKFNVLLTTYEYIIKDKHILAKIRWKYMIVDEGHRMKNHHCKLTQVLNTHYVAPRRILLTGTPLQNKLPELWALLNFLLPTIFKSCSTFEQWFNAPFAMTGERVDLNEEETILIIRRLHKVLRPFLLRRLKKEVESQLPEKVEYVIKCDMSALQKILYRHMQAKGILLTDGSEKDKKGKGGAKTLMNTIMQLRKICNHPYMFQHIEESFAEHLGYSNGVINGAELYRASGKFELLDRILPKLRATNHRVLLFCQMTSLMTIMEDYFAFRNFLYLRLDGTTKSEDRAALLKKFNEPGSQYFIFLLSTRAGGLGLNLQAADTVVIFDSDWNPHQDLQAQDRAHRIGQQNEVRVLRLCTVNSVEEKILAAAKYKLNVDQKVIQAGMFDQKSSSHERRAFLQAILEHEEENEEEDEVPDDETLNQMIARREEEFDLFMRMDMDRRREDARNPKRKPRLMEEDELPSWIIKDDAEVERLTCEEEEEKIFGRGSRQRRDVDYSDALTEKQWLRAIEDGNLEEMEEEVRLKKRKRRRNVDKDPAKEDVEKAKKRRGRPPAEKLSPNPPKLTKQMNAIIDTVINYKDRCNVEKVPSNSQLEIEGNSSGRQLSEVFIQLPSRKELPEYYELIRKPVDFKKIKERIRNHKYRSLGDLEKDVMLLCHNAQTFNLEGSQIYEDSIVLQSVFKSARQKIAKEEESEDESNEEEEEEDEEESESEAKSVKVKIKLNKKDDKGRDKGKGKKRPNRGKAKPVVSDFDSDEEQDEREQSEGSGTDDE
experimentSummary: SMARCA2 HiBiT degradation assay in HeLa cells
Type: cell-based
protocolConditions: 18 hours, read-out: SMARCA2 IC50
Attribute: DC50

As a guide, the following entries are already answered.
molecule: CCC12CNc3nnc(-c4cccc(F)c4O)cc3N1CCN(C(=O)N1CCN(CC3CCN(c4ccc5c(c4)C(=O)N([C@H]4CCC(=O)NC4=O)C5)CC3)CC1(C)C)C2 (single isomer, unassigned) [Example 74]
system: SMARCA2 (Homo sapiens, UniProt P51531)
DC50: < 100 nM
//
molecule: C[C@@H]1C[C@H](CN2CCN(c3ccc4c(c3)C(=O)N([C@H]3CCC(=O)NC3=O)C4)CC2)C[C@H](C)N1C(=O)N1CCN2c3cc(-c4cccc(F)c4O)nnc3NCC2(C)C1 (single isomer, unassigned) [Example 121]
system: SMARCA2 (Homo sapiens, UniProt P51531)
DC50: < 100 nM

Continue with the next molecule.
// recorded DC50 for O=C1CC[C@H](N2Cc3ccc(N4CCN(C[C@H]5CC[C@H](CN6CCN7c8cc(-c9cccc(F)c9O)nnc8NC[C@H]7C6)CC5)CC4)cc3C2=O)C(=O)N1 [Example 114] : < 100 nM

Recorded values, source patent US20230365576A1.
